The measurements presented in this section are drawn from paper PMC2756588.

Assay System: Bem1-2, P29366
Sequence (P29366 139-227): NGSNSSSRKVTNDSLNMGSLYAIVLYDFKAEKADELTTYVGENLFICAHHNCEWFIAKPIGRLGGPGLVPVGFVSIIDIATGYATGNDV
Assay: SPOT array
Test Context: median of control spots 4347
Value Type: SPOT intensity

Look over these answered cases.
### Prompt Given the binder NVLRKILEIPLHSFS , what is its reported SPOT intensity?
### Response 0

### Prompt Given the binder GKLKHIPRRPYEIER , what is its reported SPOT intensity?
### Response 0

Further cases:
### Prompt Given the binder KMSRSPPRPPSLKII , what is its reported SPOT intensity?
### Response 567

### Prompt Given the binder VATSTSPKLPPRGKQ , what is its reported SPOT intensity?
### Response 0

### Prompt Given the binder KTKQQKPAIPQKKSF , what is its reported SPOT intensity?
### Response 5

### Prompt Given the binder QTREPNEPPPPSPAM , what is its reported SPOT intensity?
### Response 0

### Prompt Given the binder PPPPPPPPPPLPQSL , what is its reported SPOT intensity?
### Response 1

### Prompt Given the binder NIKVLLNPKLGKPVK , what is its reported SPOT intensity?
### Response 3

### Prompt Given the binder RRLRDKYKLPIVDAD , what is its reported SPOT intensity?
### Response 2

### Prompt Given the binder GKKVRPLLVLLLSRA , what is its reported SPOT intensity?
### Response 0

### Prompt Given the binder LTRRFPFLFPFDTRM , what is its reported SPOT intensity?
### Response 61
